test target: biotinylated canine FcRn (canine, UniProt A0A8I3PFR8 25-347, biotinylated (site not stated))
Sequence (A0A8I3PFR8 entry or part of it): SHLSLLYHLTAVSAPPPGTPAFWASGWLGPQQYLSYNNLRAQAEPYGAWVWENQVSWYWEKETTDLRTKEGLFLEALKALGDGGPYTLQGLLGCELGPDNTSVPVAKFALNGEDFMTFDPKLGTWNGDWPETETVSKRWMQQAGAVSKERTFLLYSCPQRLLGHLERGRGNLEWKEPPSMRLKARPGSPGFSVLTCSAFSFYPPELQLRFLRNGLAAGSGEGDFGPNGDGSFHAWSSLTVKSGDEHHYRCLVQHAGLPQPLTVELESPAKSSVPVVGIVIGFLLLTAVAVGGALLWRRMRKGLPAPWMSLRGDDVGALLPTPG
test name: ELISA pH 5.5, fusion protein coated, biotinylated canine FcRn titrated
recorded endpoint: EC50 (µg/mL)

• insulin-Fc fusion protein of SEQ ID NO: 32 (Fc fusion, homodimer; also called 218d) FVNQHLCGSHLVEALELVCGERGFHYGGGGGGSGGGGGIVEQCCTSTCSLDQLENYCGGGGGQGGGGQGGGGQGGGGGDCPKCPAPEMLGGPSVFIFPPKPKDTLLIARTPEVTCVVVDLDPEDPEVQISWFVDGKQMQTAKTQPREEQFNGTYRVVSVLPIGHQDWLKGKQFTCKVNNKALPSPIERTISKARGQAHQPSVYVLPPSREELSKNTVSLTCLIKDFFPPDIDVEWQSNGQQEPESKYRTTPPQLDEDGSYFLYSKLSVDKSRWQRGDTFICAVMHEALHNHYTQESLSHSPG = 0.599
• insulin-Fc fusion protein of SEQ ID NO: 124 (Fc fusion, homodimer) FVNQHLCGSHLVEALELVCGERGFHYGGGGGGSGGGGGIVEQCCTSTCSLDQLENYCGGGGGQGGGGQGGGGQGGGGGDCPKCPPPEMLGGPSIFIFPPKPKDTLSISRTPEVTCLVVDLGPDDSDVQITWFVDNTQVYTAKTSPREEQFSSTYRVVSVLPILHQDWLKGKEFKCKVNSKSLPSPIERTISKDKGQPHEPQVYVLPPAQEELSRNKVSVTCLIEGFYPSDIAVEWEITGQPEPENNYRTTPPQLDSDGTYFLYSRLSVDRSRWQRGNTYTCSVSHEALHSHHTQKSLTQSPG = 6.92
• insulin-Fc fusion protein of SEQ ID NO: 40 (Fc fusion, homodimer) FVNQHLCGSHLVEALALVCGERGFHYGGGGGGSGGGGGIVEQCCTSTCSLDQLENYCGGGGGQGGGGQGGGGQGGGGGDCPKCPPPEMLGGPSIFIFPPKPKDTLSISRTPEVTCLVVDLGPDDSDVQITWFVDNTQVYTAKTSPREEQFSSTYRVVSVLPILHQDWLKGKEFKCKVNSKSLPSPIERTISKDKGQPHEPQVYVLPPAQEELSRNKVSVTCLIEGFYPSDIAVEWEITGQPEPENNYRTTPPQLDSDGTYFLYSRLSVDRSRWQRGNTYTCSVSHEALHSHHTQKSLTQSPG = 8.16

Numbers sourced from patent US20240101635A1.
